Hi there, I'd appreciate the recorded pKa for every entry that follows.
Test description: pKa in the dark and under light irradiation
Format: physicochemical
Recorded conditions: water:DMSO 99:1, dark; read-out: pKa dark (open form)

# count of solved cases: 2
>>> result("CC1(C)C(/C=C/c2cc(F)ccc2O)=Nc2ccccc21 [1e]")
4.3
>>> result("CC1(C)C(/C=C/c2ccccc2O)=Nc2ccc(S(=O)(=O)[O-])cc21.[K+] [1f]")
3.9

Hey, can you go through the list below and give me pKa for every item?
1. COc1ccc2c(c1)C(C)(C)C(/C=C/c1ccccc1O)=N2 [1b]
2. COc1ccc(O)c(/C=C/C2=Nc3ccccc3C2(C)C)c1 [1c]

Result:
1. 4.6
2. 4.3

Hey, can you go through the list below and give me pKa for every item?
1. CC1(C)C(/C=C/c2ccccc2O)=Nc2ccccc21 [1a]
2. CC1(C)C(/C=C/c2ccccc2O)=Nc2ccc(F)cc21 [1d]

Result:
1. 4.3
2. 4.3
